These entries and their values trace back to PubChem BioAssay (NCI).

- Tested on: HS 578T breast
- EXPERIMENT: NCI-60 one-dose screen, 48 h (100 = growth as untreated, 0 = no growth, -100 = all killed)
- PROTOCOL CONDITIONS: 10 µM unless noted
About 83,000 compounds went through this panel and 20% of them were active in at least one assay; those are over-represented in the sample as a whole.
MEASURED PROPERTY: growth (%)
Give the number; % is assumed, so skip it.

Solved entries (count: 2):
compound=NS(=O)(=O)c1cnccc1-n1ccc(=O)c(S(N)(=O)=O)c1 reported_value=64
compound=CC(C)(C)Nc1c(-c2c3ccccc3cc3ccccc23)nc2ccccn12 reported_value=72

# return recorded growth for entry CN1C[C@@H](c2ccc(Cl)cc2)[C@]2(NC(=S)N(c3ccc(F)c(Cl)c3)C2=O)[C@@]12C(=O)NC1C=CC(Cl)=C[C@H]12 (some centres undefined)
77.6

# return recorded growth for entry `[2H]c1nc(Nc2ncc(F)c(-c3cc(F)c4nc(C)n(C(C)C)c4c3)n2)c([2H])c([2H])c1CN1CCN(C([2H])([2H])C([2H])([2H])[2H])CC1`
35.7

###

- Test system: T-47D breast
- EXPERIMENT: NCI-60 one-dose screen, 48 h (100 = growth as untreated, 0 = no growth, -100 = all killed)
- PROTOCOL CONDITIONS: 10 µM unless noted
About 83,000 compounds went through this panel and 20% of them were active in at least one assay; those are over-represented in the sample as a whole.
MEASURED PROPERTY: growth (%)
Give the number; % is assumed, so skip it.

Solved entries (count: 5):
compound=Nc1c(C(=O)Nc2ccccc2)sc2nc3c(cc12)CCCCCC3 result_unit=% reported_value=38.2
compound=Nc1nc(N)c(-c2ccc(Cl)cc2)c(/C=C/c2ccc([N+](=O)[O-])cc2)n1 result_unit=% reported_value=84.7
compound=NC(=O)CC1(O)C=C(Br)C(=O)C(Br)=C1 result_unit=% reported_value=31
compound=N=C(N)c1ccc(-c2ccc(-c3ccc(Cl)cn3)s2)cc1 result_unit=% reported_value=55.4
compound=O=S(=O)(NCCNc1cc(-c2c(-c3cccc(O)c3)nc3sccn23)ccn1)c1ccc(Cl)cc1 result_unit=% reported_value=26

# return recorded growth for entry `O=C1Nc2ccccc2/C1=N/N=C/c1c[nH]c2ccccc12`
61

# return recorded growth for entry `CN1CCN(CCCOc2ccc3nc(Nc4cc(Cl)cc(Cl)c4)ccc3c2)CC1`
-68.6

###

Property: growth; scope: individual molecules
- Test system: IGROV1 ovarian
- EXPERIMENT: NCI-60 one-dose screen, 48 h (100 = growth as untreated, 0 = no growth, -100 = all killed)
- PROTOCOL CONDITIONS: 10 µM unless noted
Compounds without any hit were thinned out: in the full panel of roughly 83,000, 20% have a hit. Active and inactive are the calls of the source. Rule for the calls: active = growth percent below 10; inactive = the rest.

molecule=CC(C)n1nc(C#Cc2cccc3cc(-c4cccc(C(F)(F)F)c4)ncc23)c2c(N)ncnc21 measured_property=growth reported_value="72% (inactive)"
molecule=CCNCCNc1cc(-c2ccc(C(F)(F)F)cc2)c(C#N)c2nc3cc(Cl)c(Cl)cc3n12 measured_property=growth reported_value="-77.8% (active)"

# return recorded growth for entry `C=C(Cl)COC(=O)C(C)(C)O`
109% (inactive)

# return recorded growth for entry CCN(CC)CCCC(C)NCc1ccccc1 (stereo unspecified)
95.6% (inactive)

# return recorded growth for entry `Cc1cc(-c2ccc(N(C)C)cc2)c2sc(=O)[nH]c2n1`
61.5% (inactive)

# return recorded growth for entry `CN(C)c1ccc2cc(-c3ccc(Cl)c(Cl)c3)c(N)nc2c1`
42% (inactive)

# return recorded growth for entry `Nc1c(-c2nc3ccc(Br)cc3c(=O)[nH]2)nnn1-c1ccccc1`
90.3% (inactive)

# return recorded growth for entry `COc1ccc(/C=C(\C#N)n2nnc3ccccc32)cc1`
7.84% (active)

# return recorded growth for entry `Cc1ccc(/C(=N\N=C(N)N)c2ccccc2)cc1`
-0.836% (active)

# return recorded growth for entry `CCN(CCO)CC(=O)c1cc(Cl)cc(Cl)c1Cl`
109% (inactive)

# return recorded growth for entry `CN(C)S(=O)(=O)n1cnc([C@@H]2[C@@H]3C(=O)OC[C@@H]3C[C@]23N=CN(Cc2ccccc2)C3=O)c1`
113% (inactive)

# return recorded growth for entry `CC[C@@H](C[C@H](CCO)c1ccccc1)c1cc2ccccc2o1`
97.8% (inactive)

# return recorded growth for entry `CCCCCCCC/C=C/CCCCCCCC1=NCC[N+]1(CCO)CCO`
-8.63% (active)

# return recorded growth for entry C=CCN1C(=O)[C@]2(SC1=S)[C@H](c1cccc(Cl)c1)CN(C)[C@]21C(=O)NC2C=CC(Cl)=C[C@H]21 (stereo partly specified)
48.3% (inactive)

# return recorded growth for entry `CCCCCCCCn1cc(C2=C(c3coc4ccc(OC)cc34)C(=O)NC2=O)c2ccccc21`
104% (inactive)

# return recorded growth for entry `CCNCCNc1cc(-c2ccc(C#N)cc2)c(C#N)c2nc3ccccc3n12`
47.7% (inactive)
